Tested on: MDA-MB-453
Assay: drug sensitivity score (DSS), single agent (DSS (weighted AUC score)); higher = more sensitive (stronger viability decrease); extreme values may be limits of the assay
Details: BLU9931 0 nM; 72 h
# maps each entry to its drug sensitivity score
Could you respond with only the numeric value?

The examples below pair each entry with its known result.
Compound	drug sensitivity score
CCc1c(C(=O)C(N)=O)c2c(OCC(=O)O)cccc2n1Cc1ccccc1	0
C[C@@H]1CN(Cc2ccc(F)cc2)[C@@H](C)CN1C(=O)c1cc2c(C(=O)C(=O)N(C)C)cn(C)c2cc1Cl	0
O=c1ncn2nc(Sc3ccc(F)cc3F)ccc2c1-c1c(Cl)cccc1Cl	0
CC[C@H](CO)Nc1nc(NCc2ccccc2)c2ncn(C(C)C)c2n1	0
C/C(=C\c1csc(C)n1)[C@@H]1C[C@@H]2O[C@]2(C)CCC[C@H](C)[C@H](O)[C@@H](C)C(=O)C(C)(C)[C@@H](O)CC(=O)N1 [Ixabepilone]	5.6
Cn1cnc2c(F)c(Nc3ccc(Br)cc3F)c(C(=O)NOCCO)cc21	0

Read the entry "N#Cc1ccc2[nH]c(O)c(-c3ccc(CN4CCOCC4)cn3)c2c1" and write its reported drug sensitivity score.
0

Read the entry "N#CC[C@H](C1CCCC1)n1cc(-c2ncnc3[nH]ccc23)cn1" and write its reported drug sensitivity score.
1.2

Read the entry Nc1cccc2c1CN(C1CCC(=O)NC1=O)C2=O (centres undefined) [Lenalidomide] and write its reported drug sensitivity score.
0

Read the entry "O=C(O)CC[C@H]1CC[C@@](c2cc(F)ccc2F)(S(=O)(=O)c2ccc(Cl)cc2)CC1" and write its reported drug sensitivity score.
0.1

Read the entry "CCOC(=O)C1=CCCC[C@H]1S(=O)(=O)Nc1ccc(F)cc1Cl" and write its reported drug sensitivity score.
0

Read the entry "Nc1nc(Cl)nc2c1ncn2[C@H]1C[C@H](O)[C@@H](CO)O1" and write its reported drug sensitivity score.
0

Read the entry "CC(C)n1nc(-c2ccc3oc(N)nc3c2)c2c(N)ncnc21" and write its reported drug sensitivity score.
17.1

Read the entry "COc1cc(N2CCN(C)CC2)ccc1Nc1nccc(-c2cn(C)c3cnccc23)n1" and write its reported drug sensitivity score.
1.3

Read the entry "CCNC(=O)C[C@@H]1N=C(c2ccc(Cl)cc2)c2cc(OC)ccc2-n2c(C)nnc21" and write its reported drug sensitivity score.
10

Read the entry "C=CCN(/C=C1/C(=O)O[C@H](COC)[C@@]2(C)C1=C(O)C(=O)C1=C2[C@H](OC(C)=O)C[C@]2(C)C(=O)CC[C@@H]12)CC=C" and write its reported drug sensitivity score.
0

Read the entry "CNS(=O)(=O)Nc1nccc(Cc2c(C)c3ccc(Oc4ncccn4)cc3oc2=O)c1F" and write its reported drug sensitivity score.
0.5

Read the entry O=C1CN2Cc3c(ccc(Cl)c3Cl)N=C2N1 [Anagrelide] and write its reported drug sensitivity score.
0

Read the entry "COc1cccc2c1c(O)c(C(=O)N(C)c1ccc(C(F)(F)F)cc1)c(=O)n2C" and write its reported drug sensitivity score.
2.9

Read the entry "CCn1c(=O)c(-c2ccc(Cl)cc2Cl)cc2cnc(Nc3ccc(N4CCNCC4)c(F)c3)nc21" and write its reported drug sensitivity score.
3.9

Read the entry "Nc1nc(N)c2nc(-c3cccc(O)c3)c(-c3cccc(O)c3)nc2n1" and write its reported drug sensitivity score.
5.1

Read the entry "COC(=O)N[C@@H](C)CNc1nccc(-c2cn(C(C)C)nc2-c2cc(Cl)cc(NS(C)(=O)=O)c2F)n1" and write its reported drug sensitivity score.
0.2

Read the entry "Cc1sc2c(c1C)C(c1ccc(Cl)cc1)=N[C@@H](CC(=O)Nc1ccc(O)cc1)c1nnc(C)n1-2" and write its reported drug sensitivity score.
15.2

Read the entry "C[C@@H](Oc1cc(-n2cnc3ccc(CN4CCN(C)CC4)cc32)sc1C(N)=O)c1ccccc1C(F)(F)F" and write its reported drug sensitivity score.
11.5

----------
# maps each entry to its drug sensitivity score
System: MDA-MB-453
Test: drug sensitivity score (DSS), in combination with BLU9931 (DSS (weighted AUC score)); higher = more sensitive (stronger viability decrease); extreme values may be limits of the assay
Settings: BLU9931 100 nM; 72 h

The examples below pair each entry with its known result.
Molecule	Value measured
CCc1nc(C(N)=O)c(Nc2ccc(N3CCC(N4CCN(C)CC4)CC3)c(OC)c2)nc1NC1CCOCC1 [Gilteritinib]	0
COc1cc(OC)c(/C=C/S(=O)(=O)Cc2ccc(OC)c(NCC(=O)O)c2)c(OC)c1 [Rigosertib]	16.2

Alright, here's another molecule for you.
Supply drug sensitivity score measured with MDA-MB-453 for C=CC(=O)Nc1cccc(Nc2nc(Nc3ccc(N4CCN(C(C)=O)CC4)cc3OC)ncc2C(F)(F)F)c1 [Rociletinib] .
7.9

----------
# maps each entry to its drug sensitivity score
Tested on: MDA-MB-453
Assay: drug sensitivity score (DSS), single agent (DSS (weighted AUC score)); higher = more sensitive (stronger viability decrease); extreme values may be limits of the assay
Details: BLU9931 0 nM; 72 h
Could you respond with only the numeric value?

Compound	Value measured
CC/C(=C(\c1ccccc1)c1ccc(OCCN(C)C)cc1)c1ccccc1	5.3
C=CCc1cccc(/C=N/NC(=O)CN2CCN(Cc3ccccc3)CC2)c1O	4.4
CCOc1ccn(-c2ccc(F)cc2)c(=O)c1C(=O)Nc1ccc(Oc2ccnc(N)c2Cl)c(F)c1	0
COc1cc(C)c(/C=C/C(C)=C/C=C/C(C)=C/C(=O)O)c(C)c1C	0.2
Cc1ccc(Nc2nccc(N(C)c3ccc4c(C)n(C)nc4c3)n2)cc1S(N)(=O)=O	2.3
CNC(=O)c1nn(C)c2c1C(C)(C)Cc1cnc(Nc3ccc(N4CCN(C)CC4)cc3)nc1-2	8.3
Cc1c2oc3c(C)ccc(C(=O)N[C@@H]4C(=O)N[C@H](C(C)C)C(=O)N5CCC[C@H]5C(=O)N(C)CC(=O)N(C)[C@@H](C(C)C)C(=O)O[C@@H]4C)c3nc-2c(C(=O)N[C@@H]2C(=O)N[C@H](C(C)C)C(=O)N3CCC[C@H]3C(=O)N(C)CC(=O)N(C)[C@@H](C(C)C)C(=O)O[C@@H]2C)c(N)c1=O	21
Cc1cn(-c2cc(NC(=O)c3ccc(C)c(Nc4nccc(-c5cnccn5)n4)c3)cc(C(F)(F)F)c2)cn1	0

Read the entry "CNC(=O)c1ccccc1Sc1ccc2c(/C=C/c3ccccn3)n[nH]c2c1" and write its reported drug sensitivity score.
2.2

Read the entry "C[C@H]1O[C@@H](O[C@H]2[C@@H](O)C[C@H](O[C@H]3[C@@H](O)C[C@H](O[C@H]4CC[C@@]5(C)[C@H](CC[C@@H]6[C@@H]5C[C@@H](O)[C@]5(C)[C@@H](C7=CC(=O)OC7)CC[C@]65O)C4)O[C@@H]3C)O[C@@H]2C)C[C@H](O)[C@@H]1O" and write its reported drug sensitivity score.
8.2

Read the entry "Nc1ccccc1NC(=O)c1ccc(CNC(=O)OCc2cccnc2)cc1" and write its reported drug sensitivity score.
9.2

Read the entry "CCC/C=C/C=C/C(=O)O[C@H]1/C(=C/C(=O)OC)C[C@H]2C[C@H]([C@@H](C)O)OC(=O)C[C@H](O)C[C@@H]3C[C@H](OC(C)=O)C(C)(C)[C@](O)(C[C@@H]4C/C(=C/C(=O)OC)C[C@H](/C=C/C(C)(C)[C@]1(O)O2)O4)O3" and write its reported drug sensitivity score.
7.9

Read the entry O=C1Cc2cc(C(=O)NC3C[C@H]4CC[C@@H](C3)N4S(=O)(=O)CC3CCN(CCCC(F)(F)F)CC3)c(Cl)cc2N1 (stereo partly drawn) and write its reported drug sensitivity score.
0

Read the entry "Cc1c(C(=O)Nc2ccc(N3C[C@@H](C)O[C@@H](C)C3)nc2)cccc1-c1ccc(OC(F)(F)F)cc1" and write its reported drug sensitivity score.
5.8

Read the entry "COC(=O)c1ccc2c(c1)[nH]c1ncnc(NCCCN3CCCCC3)c12" and write its reported drug sensitivity score.
2

Read the entry "CS(=O)(=O)CCNCc1ccc(-c2ccc3ncnc(Nc4ccc(OCc5cccc(F)c5)c(Cl)c4)c3c2)o1" and write its reported drug sensitivity score.
6.5

Read the entry "Cn1cnc2c(F)c(Nc3ccc(Br)cc3Cl)c(C(=O)NOCCO)cc21" and write its reported drug sensitivity score.
0.7

Read the entry "Cc1ccc(C(=O)N(CCCN)[C@@H](c2oc3cc(Cl)ccc3c(=O)c2Cc2ccccc2)C(C)C)cc1" and write its reported drug sensitivity score.
5.3

Read the entry "FC(F)(F)c1ccc(/C=C/c2nc(COc3ccc(CCCCn4ccnn4)cc3)co2)cc1" and write its reported drug sensitivity score.
7.8

Read the entry "O=C(c1ccc(F)c(F)c1Nc1ccc(I)cc1F)N1CC(O)([C@@H]2CCCCN2)C1" and write its reported drug sensitivity score.
1.7

Read the entry O=C1CCC(N2C(=O)c3ccccc3C2=O)C(=O)N1 (stereo not drawn) [Thalidomide] and write its reported drug sensitivity score.
0

Read the entry "O[C@H]1CC[C@H](Nc2ncc3nc(Nc4c(F)cc(F)cc4F)n([C@H]4CCOC4)c3n2)CC1" and write its reported drug sensitivity score.
0

Read the entry "COCCOc1cnc2ccn([C@H](C)c3nnc4c(F)cc(-c5cnn(C)c5)cn34)c(=O)c2c1" and write its reported drug sensitivity score.
0

The origin of these recorded values is the supplement of paper PMC7224384.
